# Test system: AURKA
# condition_description: concentration: 1 μM, replicates: in singlicate; n = 1;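 further: KINOMEscan kinase panel screen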
quantity_name: %Inh
Please format your answer as a value with the unit trailing.

* Cc1ccc(-c2ccc3c(ccc4sc5c(c43)NC[C@@H](C)N=C5N(C)C)n2)cn1 | 0%
* COc1ccc(CNC(=O)NC2CCN(c3ccnc(Nc4ccc(F)cc4)n3)C2)cc1 (centres unmarked) [GSK1379706] | 35%
* CCS(=O)c1ccc(-c2coc3ccc(-c4nnc(C)o4)cc23)cc1 (centres unmarked) | 16%
* CCCC(=O)Nc1n[nH]c2ncc(-c3cccc4ccccc34)cc12 [SB-642057] | 6%

Hey, quick one: what's %Inh for each of these?
1. O=c1cc(N2CCOCC2)nc2n(Cc3ccc(F)c(Cl)c3)ccn12 [GSK2297099]
2. CCC(=O)c1c(-c2ccccc2)c2cc(Cl)ccc2c(=O)n1Cc1cc(S(C)(=O)=O)n(CC(F)F)n1

1: 0%; 2: 0%

Hey, quick one: what's %Inh for each of these?
1. Cl.NS(=O)(=O)c1cccc(Nc2cc(-c3ccc(F)cc3)n[nH]2)c1 [GW824645]
2. Nc1n[nH]c2ncc(-c3ccccc3)cc12 [SB-517081]

1: 4%; 2: 21%

Hey, quick one: what's %Inh for each of these?
1. COc1cc2ncn(-c3cc(OCc4ccncc4)c(C(N)=O)s3)c2cc1OC [GSK336313]
2. Nc1ncnc2c1ncn2-c1ccc(Cl)cc1 [AH2635]
3. Nc1ncnc2c1ncn2-c1cccc2ccccc12 [SKF-97184]

1: 17%; 2: 0%; 3: 0%

###

So I've got a bunch of compounds here, and I need their %Inh values.
# Test system: DAPK1
# condition_description: concentration: 1 μM, replicates: in singlicate; n = 1
Give bare numbers, in %.

Hey, quick one: what's %Inh for each of these?
1. CCCC(=O)Nc1n[nH]c2ncc(-c3cccc4ccccc34)cc12 [SB-642057]
2. CN(C)c1cc(-c2ccc3c(N)n[nH]c3c2)nc(N)n1 [GSK2219329]

1. 20
2. 0

Hey, quick one: what's %Inh for each of these?
1. COc1ccc(-n2cnc3c(N)ncnc32)cc1 [SKF-97236]
2. COc1cc2ncn(-c3cc(OCCCc4ccccc4)c(C(N)=O)s3)c2cc1OC [GSK205189]
3. COc1cc2ncn(-c3cc(OCc4ccc(S(C)(=O)=O)cc4)c(C(N)=O)s3)c2cc1OC [GW869979]
4. COc1ccc(CNC(=O)NC2CCN(c3ccnc(Nc4ccc(F)cc4)n3)C2)cc1 (stereo not shown) [GSK1379706]
5. Cc1cc(Nc2nc(-c3cccc(C)n3)nc3ccccc23)ccn1 [GW872411]
6. Cc1cccc(-c2cc(-c3c[nH]nc3-c3ccccn3)ccn2)c1 [GW679395]

1. 13
2. 0
3. 0
4. 0
5. 0
6. 6

Hey, quick one: what's %Inh for each of these?
1. Nc1n[nH]c2ncc(-c3ccccc3)cc12 [SB-517081]
2. COc1cc2ncn(-c3cc(OCc4ccncc4)c(C(N)=O)s3)c2cc1OC [GSK336313]

1. 12
2. 8

Hey, quick one: what's %Inh for each of these?
1. CN1C(=O)C(Nc2ccccc2)=C(c2ccccc2)C1=O [SB-300079]
2. CC(C)(C)c1ccc(C(=O)Nc2cn3cc(-c4ccccc4)ccc3n2)cc1
3. CCC(=O)c1c(-c2ccccc2)c2cc(Cl)ccc2c(=O)n1Cc1ccc(C(=O)O)cc1

1: 0; 2: 9; 3: 13

###

So I've got a bunch of compounds here, and I need their %Inh values.
# Test system: CDK4-cyclinD1
# condition_description: concentration: 1 μM, replicates: in singlicate; n = 1
Give bare numbers, in %.

* Cc1nc(N(C)[C@H]2CN(C(=O)CC#N)CC[C@H]2C)c2cc[nH]c2n1 | 0
* CCC(=O)c1c(-c2ccccc2)c2cc(Cl)ccc2c(=O)n1Cc1cc(S(C)(=O)=O)n(CC(N)=O)n1 | 0
* COc1cc(Nc2ccnc3ccc(C(F)(F)F)cc23)cc(OC)c1OC [GW577382] | 39
* O=C(NCCNc1ccnc(Nc2ccc(F)cc2)n1)Nc1ccc2c(c1)OCO2 [GSK1379882] | 0
* COc1ccc(-c2cc3c(C)nc(N)nc3n([C@H]3CC[C@H](OCCO)CC3)c2=O)cn1 | 0
* Cc1c(Cn2c(C)nn3c(=O)cc(N4CCO[C@H](C)C4)nc23)cccc1C(F)(F)F [GSK2373690] | 0

Hey, quick one: what's %Inh for each of these?
1. Nc1nccc2scc(-c3ccc4c(c3)CCN4C(=O)Cc3ccccc3)c12 [GSK2576924]
2. Nc1n[nH]c2ncc(-c3ccccc3)cc12 [SB-517081]
3. Cc1cccc(-c2nc(Nc3ccc4c(cnn4C)c3)c3ccccc3n2)n1 [GW876731]
4. COc1cc2nccc(Nc3cccc(Oc4ccccc4)c3)c2cc1OC.Cl [GW284543]
5. Cc1ccc(Oc2ccc(Nc3ncnc4cc[nH]c34)cc2C)cn1
6. C[C@@H]1CC[C@H](C(=O)NC2CCCCC2)CN1c1cc(-c2ccc3c(N)n[nH]c3c2)nc(N)n1 [GSK2291363]
7. Nc1n[nH]c2nnc(-c3ccccc3)c(-c3ccccc3)c12 [GW554060]

1: 0; 2: 0; 3: 0; 4: 1; 5: 4; 6: 0; 7: 2

Hey, quick one: what's %Inh for each of these?
1. COc1ccc(CNC(=O)NC2CCN(c3ccnc(Nc4ccc(F)cc4)n3)C2)cc1 (stereo not shown) [GSK1379706]
2. Cc1cccc(-c2cc(-c3c[nH]nc3-c3ccccn3)ccn2)c1 [GW679395]
3. CCc1ccc(-c2ccc3c(c2)-c2nn(C)cc2S(=O)(=O)N3C)cc1

1. 52
2. 0
3. 14

###

# Test system: JNK1
# Construct: gene MAPK8
# condition_description: concentration: 1 μM, replicates: in singlicate; n = 1
quantity_name: %Inh (%)
One number for each entry, in %.

* O=C1NC(=O)C(c2ccccc2)=C1Nc1cccc(O)c1 | 22
* CCC(=O)c1c(-c2ccccc2)c2cc(Cl)ccc2c(=O)n1Cc1ccc(C(=O)O)cc1 | 95.2
* CN1C(=O)C(Nc2ccccc2)=C(c2ccccc2)C1=O | 14

Could you now consider this next molecule?
I have this molecule here, COc1ccc(CNC(=O)NC2CCN(c3ccnc(Nc4ccc(F)cc4)n3)C2)cc1 (stereo not shown) , and I need its recorded %Inh.
19

###

# Tested on: ACVRL1
# condition_description: concentration: 1 μM, replicates: in singlicate; n = 1
quantity_name: %Inh (%)
Give bare numbers, in %.

Examples with their reported %Inh follow.
* Cl.c1ccc(Cn2cnc3cc(Nc4ncnc5ccccc45)ccc32)cc1 | 0
* Nc1n[nH]c2nnc(-c3ccccc3)c(-c3ccccc3)c12 | 0
* COc1cc(Nc2ccnc3ccc(C(F)(F)F)cc23)cc(OC)c1OC | 52

Could you now consider this next compound?
I have this compound here, CC(C)(C)c1ccc(C(=O)Nc2cn3cc(-c4ccccc4)ccc3n2)cc1 , and I need its recorded %Inh.
5

###

# System: CAMK2G
# condition_description: concentration: 1 μM, replicates: in singlicate; n = 1
The label depends only on %Inh: 1 if it is at least 6%, 0 if it is smaller.

Examples from the recorded data:
• COc1cc(Nc2nccc(N3CCC(NC(=O)C4COc5ccccc5O4)C3)n2)cc(OC)c1OC (centres unmarked) [GSK1379761] = 1
• COC(=O)c1c(-c2ccccc2)c2cc(Br)ccc2c(=O)n1Cc1ccc(NC(=O)CCC(=O)O)cc1 = 1
• COc1cccc(C2=C(Nc3cccc(C(=O)O)c3)C(=O)NC2=O)c1 [SB-390770] = 1
• CCc1ccc(-c2ccc3c(c2)-c2nn(C)cc2S(=O)(=O)N3C)cc1 = 0
• CCCNC(=O)Nc1ccc(Oc2ncnc3ccn(C)c23)cc1 = 1

Confirm if %Inh reported for the compound COc1ccc(CNC(=O)NC2CCN(c3ccnc(Nc4ccc(F)cc4)n3)C2)cc1 (centres unmarked) [GSK1379706] is 6% or above.
1

Confirm if %Inh reported for the compound COC(=O)c1c(-c2ccccc2)c2cc(Br)ccc2c(=O)n1Cc1ccc(S(C)(=O)=O)cc1 is 6% or above.
1

Confirm if %Inh reported for the compound CN(C)c1cc(-c2ccc3c(N)n[nH]c3c2)nc(N)n1 [GSK2219329] is 6% or above.
1

Confirm if %Inh reported for the compound COc1ccc(-c2cc3c(C)nc(N)nc3n([C@H]3CC[C@H](OCCO)CC3)c2=O)cn1 is 6% or above.
0

Confirm if %Inh reported for the compound Nc1ncnc2c1ncn2-c1ccc(Cl)cc1 [AH2635] is 6% or above.
1

Confirm if %Inh reported for the compound Cc1nnc(-c2ccc3ncn(-c4ccc(S(C)=O)cc4)c3c2)o1 (centres unmarked) is 6% or above.
0

Confirm if %Inh reported for the compound CCS(=O)c1ccc(-c2coc3ccc(-c4nnc(C)o4)cc23)cc1 (centres unmarked) is 6% or above.
0

Confirm if %Inh reported for the compound Cc1ccccc1COc1cc(-n2cnc3cc(Cl)ccc32)sc1C(N)=O [GW813349] is 6% or above.
0

Values from paper PMC5540273
